- Assay Protocol: Hematic levels at different times after oral administration (absorption)
- Type: in vivo, Wistar rat
- Assay Context: 100 mg/kg expressed as vincamine/apovincamine, 5% carboxymethyl cellulose suspension, 100 mg/kg
Measured Metric: Max. conc. time (min)
Report the value in min with no unit label.

State its Max. conc. time: CC[C@@]12C=C(C(=O)OC)n3c4c(c5ccccc53)CCN(CCC1)[C@H]42 [Example 2.b, Apovineamine 2,4-dihydroxy-benzoate]
120

Complete the entry with Max. conc. time for CC[C@@]12C=C(C(=O)OC)n3c4c(c5ccccc53)CCN(CCC1)[C@H]42 [Example 11.b, Apovincamine 4-acetamidobutyrate]
480

# return recorded Max. conc. time for input CC[C@@]12C=C(C(=O)OC)n3c4c(c5ccccc53)CCN(CCC1)[C@H]42 [Example 16.b, Apovincamine acetylsalicylate]
60

Identify Max. conc. time associated with the compound CC[C@@]12C=C(C(=O)OC)n3c4c(c5ccccc53)CCN(CCC1)[C@H]42 [Example 25.b, Apovincamine (D,L)-mandelate]
120

Please indicate Max. conc. time recorded for CC[C@]12CCCN3CCc4c(n(c5ccccc45)[C@@](O)(C(=O)OC)C1)[C@@H]32 [Example 7.a, Vincamine 3,5-dihydroxybenzoate]
240

Report Max. conc. time, nothing else, for this compound: CC[C@]12CCCN3CCc4c(n(c5ccccc45)[C@@](O)(C(=O)OC)C1)[C@@H]32 [Example 10.a]
240

Specify Max. conc. time for CC[C@@]12C=C(C(=O)OC)n3c4c(c5ccccc53)CCN(CCC1)[C@H]42 [Example 9.b, Apovincamine clofibrate] and stop.
480

Answer with the recorded Max. conc. time for the compound listed here: CC[C@]12CCCN3CCc4c(n(c5ccccc45)[C@@](O)(C(=O)OC)C1)[C@@H]32 [Example 21.a]
20

Read the entry CC[C@]12CCCN3CCc4c(n(c5ccccc45)[C@@](O)(C(=O)OC)C1)[C@@H]32 [Example 25.a, Vincamine (D,L)-mandelate] and write its reported Max. conc. time.
20
